# target: full length recombinant Pim-2 protein (Homo sapiens)
# Construct: by full length recombinant Pim-1, Pim-2, or Pim-3 protein; hexahistidine tag followed by a thrombin cleavage site (N); made in house; host or cells: Sf9 (baculovirus) or E. coli (pET28)
# assayMethodText: Pim-2 enzyme assay (HTRF, phosphorylation of biotinylated-BAD (S112) peptide)
# Format: biochemical
# experimentalContext: enzyme assay, Pim-2; read-out: Pim2_IC50
Note: every record was labeled by where its IC50 sits among bottom end (below 100 nM), midrange (100 nM to below 400 nM), top end (400 nM or more)

- O=C(NC1CC1)c1cccc(-c2ccc3[nH]nc(-c4cncc(O[C@@H]5CCCNC5)n4)c3c2)c1: bottom end
- Fc1cccc(F)c1-c1ccc2[nH]cc(-c3cncc(O[C@H]4CCCNC4)n3)c2c1: top end
- C[C@H]1CCNC[C@@H]1Oc1cncc(-c2n[nH]c3ccc(-c4c(F)cccc4F)cc23)n1 [Example 198]: bottom end
- Nc1ccc(OC(F)(F)F)c(-c2ccc3[nH]nc(-c4cncc(N5CCC(N)CC5)n4)c3c2)c1: midrange
- Fc1cccc(F)c1-c1ccc2[nH]cc(-c3cncc(NC4CCCCC4)n3)c2c1: top end
- O[C@H]1CCCN(c2cncc(-c3n[nH]c4ccc(-c5c(F)cccc5F)cc34)n2)C1: top end
- Fc1cccc(F)c1-c1ccc2[nH]cc(-c3nccc(OC4CCNCC4)n3)c2c1: top end
- COc1cncc(-c2ccc3[nH]nc(-c4cncc(OC)c4)c3c2)c1: top end

Ask: Exam item: assign NC1CCN(c2cncc(-c3n[nH]c4ccc(-c5cc6ccccc6nc5O)cc34)n2)CC1 to the correct category.
Result: midrange

Ask: Thanks! And c1cc2cc(-c3ccc4[nH]nc(-c5cncc(O[C@@H]6CCCNC6)n5)c4c3)cnc2[nH]1 ?
Result: bottom end

Ask: Same for c1cc2[nH]nc(-c3cncc(O[C@@H]4CCCNC4)n3)c2cc1C1CCOCC1
Result: midrange

Ask: Input Nc1cnnc(-c2ccc3[nH]nc(-c4cncc(N5CCC(N)CC5)n4)c3c2)c1
Result: bottom end

Ask: Proceed to CC(C)NC(=O)c1ccc2[nH]cc(-c3cncc(N4CCC(N)CC4)n3)c2c1
Result: top end

----------
# target: full length recombinant Pim-2 protein (Homo sapiens, UniProt Q9P1W9)
# Construct: by full length recombinant Pim-1, Pim-2, or Pim-3 protein; hexahistidine tag followed by a thrombin cleavage site (N); made in house; host or cells: Sf9 (baculovirus) or E. coli (pET28)
# Sequence (Q9P1W9 whole entry): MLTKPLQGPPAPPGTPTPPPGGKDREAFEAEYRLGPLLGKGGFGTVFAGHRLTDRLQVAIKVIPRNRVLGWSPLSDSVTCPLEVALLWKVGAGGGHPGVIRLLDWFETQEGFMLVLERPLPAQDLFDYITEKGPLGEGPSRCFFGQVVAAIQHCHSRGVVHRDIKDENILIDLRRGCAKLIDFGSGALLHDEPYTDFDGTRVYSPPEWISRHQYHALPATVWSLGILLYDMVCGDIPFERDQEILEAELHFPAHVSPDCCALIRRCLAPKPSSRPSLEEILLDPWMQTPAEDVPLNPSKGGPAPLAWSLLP
# assayMethodText: Pim-2 enzyme assay (HTRF, phosphorylation of biotinylated-BAD (S112) peptide)
# Format: biochemical
# experimentalContext: read-out: Pim2_IC50
measuredMetric: IC50 (µM)
Hi! Could you send only the number? It should be in µM, unit omitted.

* COC(=O)c1ccc2[nH]nc(-c3cncc(N[C@@H]4CCCNC4)n3)c2c1 | 0.044
* CC(C)Nc1nc(-c2n[nH]c3ccc(-c4c(F)cccc4F)cc23)cc(=O)[nH]1 | 0.018
* c1cc2[nH]nc(-c3cncc(OC4CCNCC45CC5)n3)c2cc1-c1cncc(C2CC2)n1 (centres unmarked) | 0.007
* COc1ncccc1-c1ccc2[nH]cc(-c3cncc(O[C@@H]4CCCNC4)n3)c2c1 | 0.141

Ask: Endpoint output: IC50 of c1cc(N2CCOCC2)ccc1-c1ccc2[nH]cc(-c3cncc(O[C@@H]4CCCNC4)n3)c2c1 . Value?
Result: 0.018

Ask: Same question, FCCOc1cncc(-c2n[nH]c3ccc(-c4nccc(C5CC5)n4)cc23)n1 this time
Result: 0.457

Ask: Same lookup for NC1CCN(c2ccnc(-c3n[nH]c4ccc(-c5c(F)cccc5F)cc34)n2)CC1 , please.
Result: 0.142

Ask: Same again, this time with O=C(O)c1ccc2[nH]nc(-c3cncc(N[C@@H]4CCCNC4)n3)c2c1
Result: 0.159

Ask: Query COc1cc(-c2ccc3[nH]cc(-c4cncc(O[C@@H]5CCCNC5)n4)c3c2)c(F)cn1 next
Result: 0.011

Ask: Subsequent entry: c1cc2[nH]nc(-c3cncc(OC4CCNCC4)n3)c2cc1-c1cncc(C2CC2)n1
Result: 0.005

Ask: Request: CN(C)C(=O)c1ccc2[nH]nc(-c3ccnc(N[C@@H]4CCCNC4)n3)c2c1
Result: 0.719

Ask: Another compound to look at: Oc1cc(-c2c[nH]c3ccc(-c4c(F)cccc4F)cc23)nc(N2CCOCC2)n1
Result: 0.032

Ask: Continue with CC1CCNCC1Oc1cncc(-c2n[nH]c3ccc(-c4c(F)cccc4F)cc23)n1 (single isomer, unassigned) [Example 424]
Result: 0.004

Ask: Subsequent entry: c1cc(OC2CCC2)nc(-c2ccc3[nH]cc(-c4cncc(O[C@@H]5CCCNC5)n4)c3c2)c1
Result: 0.122

Ask: Then this compound: NC1CCN(c2nc(O)cc(-c3n[nH]c4ccc(-c5c(F)cccc5F)cc34)n2)CC1
Result: 0.002

Ask: Now the same for NC1CCN(c2cncc(-c3n[nH]c4ccc(-c5nccc6[nH]ccc56)cc34)n2)CC1
Result: 0.065
